format: physicochemical; details: buffer
quantity.name: T1/2, temperature where 50% of the protein was unfolded, Buffer plus Fe2+ and aKG

T1/2, temperature where 50% of the protein was unfolded, Buffer plus Fe2+ and aKG measured on MON-HT55: engineered oxygenase protein, amino acid sequence SEQ ID NO:11 (protein) MHAALSPLSQRFERIAVQPLTGVLGAEITGVDLREPLDDSTWNEILDAFHTYQVIYFPGQAITNEQHIAFSRRFGPVDPVPLLKSIEGYPEVQMIRREANESGRVIGENWHTDSTFLDAPPAAVVMYAKEIPPYGGDTLFTSMYTAWETLSPTMQATIEGLNVVHSATRVFGSLYQAQNRRFSNTSVKVMDVDAGDRETVHPLVVTHPETGRKGLYVNQVYCQRIEGMSEKESEPLLSFLFAHATKPEFTCRVRWQEGDVLVWDNLCTQHYAVPDYAGKFRYLTRTTVGGVRPAR = 41 °C
